These data points were gathered from patent US8648092B2.

System: Colo205 cells
Experiment: Cell-based proliferation assay for determination of GI50 values (CyQUANT)
Design: species or system human
Settings: Homo sapiens, COLO 205, 96 h, 96 h treatment
The entries below are paired with their reported GI50.
reportedEndpoint: GI50 (nM)

CCN(CC)Cc1c(C(C)(C)C)nc2cc(/C=C/C(=O)NO)ccn12 | 4400
CCC(CC)NCc1c(C(C)(C)C)nc2cc(C=CC(=O)NO)ccn12 | 1500
CCCc1nc2cc(/C=C/C(=O)NO)ccn2c1CN(CC)CCC(C)(C)C | 70
CCN(CCC(C)C)Cc1c(C(C)(C)C)nc2cc(/C=C/C(=O)NO)ccn12 | 350
CCCCCCCN(CC)Cc1c(C(C)(C)C)nc2cc(/C=C/C(=O)NO)ccn12 | 2700
CCN(Cc1c(C(C)(C)C)nc2cc(/C=C/C(=O)NO)ccn12)CC1CCCCC1 | 1100
CCCCc1nc2cc(/C=C/C(=O)NO)ccn2c1CN(C)C | 230
CCCCc1nc2cc(/C=C/C(=O)NO)ccn2c1CN(CC)CC(C)CCC (stereo not drawn) | 370
CCCc1nc2cc(/C=C/C(=O)NO)ccn2c1CNC(C)(C)C | 180

====

Target: HDAC1 enzyme (recombinant GST-HDAC1) (Homo sapiens (Human))
Experiment: In vitro HDAC assay for determination of IC50 values (BIOMOL fluorescent-based HDAC activity assay)
Details: Flur de lys substrate, 2 h room temperature, read-out: IC50 (HDAC 1)
Lab note: anything with IC50 below 200 nM is marked Condition met; values at 200 nM or higher are marked Condition not met.

CCCN(CC)Cc1c(-c2ccccc2)nc2cc(/C=C/C(=O)NO)ccn12 | Condition not met
CCCCN(C)Cc1c(-c2ccccc2)nc2cc(/C=C/C(=O)NO)ccn12 | Condition met
CCC(CC)CN(CC)Cc1c(C)nc2cc(/C=C/C(=O)NO)ccn12 | Condition met
CCCN(CC)Cc1c(C)nc2cc(/C=C/C(=O)NO)ccn12 | Condition not met
O=C(/C=C/c1ccn2c(CNCC3CC3)c(-c3ccccc3)nc2c1)NO | Condition met
CCCCNCc1c(C(C)(C)C)nc2cc(/C=C/C(=O)NO)ccn12 | Condition met
O=C(/C=C/c1ccn2cc(-c3ccccc3)nc2c1)NO | Condition not met
O=C(/C=C/c1ccn2c(CN3CCCC3)c(-c3ccccc3)nc2c1)NO | Condition met
CCc1nc2ccc(/C=C/C(=O)NO)cn2c1NCCOC | Condition not met
CCCCCCc1nc2cc(/C=C/C(=O)NO)ccn2c1NCCC(=O)NCC(C)(C)CN(C)C | Condition met
CCCCN(CC)Cc1c(C(C)(C)C)nc2cc(/C=C/C(=O)NO)ccn12 | Condition met
CN(CCC(C)(C)C)Cc1c(C(C)(C)C)nc2cc(/C=C/C(=O)NO)ccn12 | Condition not met
CCCCCCc1nc2cc(/C=C/C(=O)NO)ccn2c1NCCC(=O)N(C)C(C)C | Condition not met
O=C(/C=C/c1ccc2nc(CCc3ccccc3)c(Nc3ccc4c(c3)OCO4)n2c1)NO | Condition not met
CCN(CCC(C)(C)C)Cc1c(-c2ccccc2)nc2cc(/C=C/C(=O)NO)ccn12 | Condition met
CC(C)(C)NCc1c(C(C)(C)C)nc2cc(/C=C/C(=O)NO)ccn12 | Condition met
CCN(CC)Cc1c(-c2ccccc2)nc2cc(C(=O)NO)ccn12 | Condition not met

====

Each entry below carries its recorded pIC50.
Molecular target: HDAC1 enzyme (recombinant GST-HDAC1) (Homo sapiens (Human))
Test: In vitro HDAC assay for determination of IC50 values (BIOMOL fluorescent-based HDAC activity assay)
Conditions: Flur de lys substrate, 2 h room temperature, read-out: IC50 (HDAC 1)
pIC50: −log10 of the molar value.
reportedEndpoint: pIC50

CCCCc1nc2cc(/C=C/C(=O)NO)ccn2c1CNC(C)(C)C | 7.70
Cc1cn2ccc(/C=C/C(=O)NO)cc2n1 | 5.89
CCN(CC)CCNCc1c(-c2ccccc2)nc2cc(/C=C/C(=O)NO)ccn12 | 6.19
CCCCCCc1nc2ccc(/C=C/C(=O)NO)cn2c1NCCC(=O)NCCN(C)C | 6.11
CCN(Cc1c(-c2ccccc2)nc2cc(/C=C/C(=O)NO)ccn12)CC(F)(F)F | 5.13
CCCN(Cc1c(-c2ccccc2)nc2cc(/C=C/C(=O)NO)ccn12)C(C)CC (stereo not drawn) | 6.00
CCN(CCOC)Cc1c(-c2ccccc2)nc2cc(/C=C/C(=O)NO)ccn12 | 5.80
CCN(Cc1c(C(C)(C)C)nc2cc(/C=C/C(=O)NO)ccn12)CC1CCOC1 (stereo not drawn) | 6.43
CCCN(CCO)Cc1c(-c2ccccc2)nc2cc(/C=C/C(=O)NO)ccn12 | 6.00

====

Test system: acetylated histone H3 in Colo205 cells
Assay: Histone acetylation assay (immuno-blotting with acetylated histone H3 antibody)
Type: cell-based, human
Details: 10 μM, 24 h, western blot
reportedEndpoint: Histone acetylation activities (Histone-3)

CC(C)(C)NCc1c(-c2ccc(F)cc2)nc2cc(/C=C/C(=O)NO)ccn12 [Compound 64] | active
CCCCNCc1c(-c2ccc(F)cc2)nc2cc(/C=C/C(=O)NO)ccn12 [Compound 63] | active
CC(C)(C)NCc1c(-c2ccccc2)nc2cc(/C=C/C(=O)NO)ccn12 [Compound 45] | active
CCCCNCc1c(-c2ccccc2)nc2cc(/C=C/C(=O)NO)ccn12 [Compound 39] | active
CCCCNCc1c(C(C)(C)C)nc2cc(/C=C/C(=O)NO)ccn12 [Compound 49] | active
O=C(/C=C/c1ccn2c(CN3CCCC3)c(-c3ccccc3)nc2c1)NO [Compound 60] | active
CCCN(C)Cc1c(-c2ccccc2)nc2cc(C=CC(=O)NO)ccn12 [Compound 40] | active

====

Biological target: HDAC1 enzyme (recombinant GST-HDAC1) (Homo sapiens (Human), UniProt Q13547)
Sequence (Q13547 whole entry): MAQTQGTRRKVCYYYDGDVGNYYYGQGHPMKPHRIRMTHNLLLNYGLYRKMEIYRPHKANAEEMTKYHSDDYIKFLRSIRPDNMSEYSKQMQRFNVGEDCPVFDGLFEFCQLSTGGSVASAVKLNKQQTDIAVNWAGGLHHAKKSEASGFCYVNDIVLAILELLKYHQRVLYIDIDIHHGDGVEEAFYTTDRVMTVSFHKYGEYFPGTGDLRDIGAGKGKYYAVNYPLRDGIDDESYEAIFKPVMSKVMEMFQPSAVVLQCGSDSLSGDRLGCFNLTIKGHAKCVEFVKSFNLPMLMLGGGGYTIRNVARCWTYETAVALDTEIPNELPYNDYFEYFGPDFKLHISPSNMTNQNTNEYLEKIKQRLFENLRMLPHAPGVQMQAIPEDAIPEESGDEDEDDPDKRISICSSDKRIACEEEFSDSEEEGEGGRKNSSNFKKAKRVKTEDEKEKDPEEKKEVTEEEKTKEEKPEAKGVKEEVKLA
Test: In vitro HDAC assay for determination of IC50 values (BIOMOL fluorescent-based HDAC activity assay)
Settings: Flur de lys substrate, 2 h room temperature, read-out: IC50 (HDAC 1)
pIC50: −log10 of the molar value.
Recorded measurements of pIC50, one per entry
reportedEndpoint: pIC50

CCCCCCc1nc2cc(/C=C/C(=O)NO)ccn2c1NCCC(=O)NCCN(C)C | 7.00
CCN(CC)Cc1c(-c2ccccc2)nc2cc(/C=C/C(=O)NO)ccn12 | 6.70
CCCCCCc1nc2cc(/C=C/C(=O)NO)ccn2c1NCCC(=O)NCCSC | 7.14
CCCCCCc1nc2ccc(/C=C/C(=O)NO)cn2c1NCCC(=O)NCC | 6.20
COCCNc1c(CC(C)CC(C)(C)C)nc2ccc(/C=C/C(=O)NO)cn12 (stereo not drawn) | 6.12
COCCNc1c(C(C)C)nc2ccc(/C=C/C(=O)NO)cn12 | 5.57
CCc1nc2cc(/C=C/C(=O)NO)ccn2c1CNC(C)(C)C | 7.52
CCCCCCc1nc2cc(/C=C/C(=O)NO)ccn2c1NCCC(=O)NCC | 6.42
CCCCCCc1nc2cc(/C=C/C(=O)NO)ccn2c1NCCC(=O)N(C)CCN(C)C | 6.62
CCCCc1nc2cc(/C=C/C(=O)NO)ccn2c1CN(CC)CCCC | 7.22
CCN1CCN(Cc2c(-c3ccccc3)nc3cc(/C=C/C(=O)NO)ccn23)CC1 | 5.34
CCN(Cc1c(C(C)(C)C)nc2cc(/C=C/C(=O)NO)ccn12)CC(C)C | 6.24
CCCN(Cc1c(-c2ccccc2)nc2cc(/C=C/C(=O)NO)ccn12)CC1CC1 | 6.22
CN(Cc1c(C(C)(C)C)nc2cc(C=CC(=O)NO)ccn12)CC(C)(C)C | 6.11
CCCCNCc1c(CCCC)nc2cc(/C=C/C(=O)NO)ccn12 | 7.70
CCCCNCc1c(-c2ccc(F)cc2)nc2cc(/C=C/C(=O)NO)ccn12 | 7.20
CC(C)(C)CNCc1c(C(C)(C)C)nc2cc(/C=C/C(=O)NO)ccn12 | 6.72
CC(C)Nc1c(C(C)C)nc2ccc(/C=C/C(=O)NO)cn12 | 5.57
CCCCN(CC)Cc1c(CC(C)C)nc2cc(/C=C/C(=O)NO)ccn12 | 7.40
CCCCc1nc2cc(/C=C/C(=O)NO)ccn2c1CN(CC)CC(C)C | 7.05
CCCN(CC)Cc1c(C(C)(C)C)nc2cc(/C=C/C(=O)NO)ccn12 | 6.57
CCN(CCN(C)C)Cc1c(-c2ccccc2)nc2cc(/C=C/C(=O)NO)ccn12 | 5.54
CCCCCCc1nc2cc(/C=C/C(=O)NO)ccn2c1NCCC(=O)NC | 6.41
CCN(CCC(C)(C)C)Cc1c(C)nc2cc(/C=C/C(=O)NO)ccn12 | 7.30
CCCCN(CC)Cc1c(CCC(C)C)nc2cc(/C=C/C(=O)NO)ccn12 | 7.40
CCN(CCC(C)C)Cc1c(C(C)(C)C)nc2cc(/C=C/C(=O)NO)ccn12 | 7.22
CCCCCCN(CC)Cc1c(C(C)(C)C)nc2cc(/C=C/C(=O)NO)ccn12 | 6.62
CCCCN(CC)Cc1c(CC)nc2cc(/C=C/C(=O)NO)ccn12 | 7.30
CCCCN(C)Cc1c(C(C)(C)C)nc2cc(/C=C/C(=O)NO)ccn12 | 6.66
O=C(/C=C/c1ccc2nc(CCc3ccccc3)c(NC3CCCCC3)n2c1)NO | 5.85
CCCCc1nc2cc(/C=C/C(=O)NO)ccn2c1CN(C)C | 7.40
CCCCc1nc2cc(/C=C/C(=O)NO)ccn2c1CN(CC)CCC(C)(C)C | 7.52
CCCCCCc1nc2cc(C=CC(=O)NO)ccn2c1NCCC(=O)NC(C)(C)C | 6.85
CCCCCc1nc2cc(/C=C/C(=O)NO)ccn2c1CN(CC)CCC(C)(C)C | 7.52
CCCCNCc1c(C)nc2cc(/C=C/C(=O)NO)ccn12 | 6.80
